# MIC listing for each entry below
system: MRSA; experiment: antibacterial activity of antibiotics alone and in the presence of apigenin (4 μg/ml), MRSA; format: cell-based, methicillin-resistant Staphylococcus aureus; settings: Staphylococcus aureus, MRSA, 20 h, antibiotic with Apigenin (4 μg/ml)

In the examples that follow, each entry is paired with its recorded MIC.
{"compound": "CN[C@H](CC(C)C)C(=O)N[C@H]1C(=O)N[C@@H](CC(N)=O)C(=O)N[C@H]2C(=O)N[C@H]3C(=O)N[C@H](C(=O)N[C@H](C(=O)O)c4cc(O)cc(O)c4-c4cc3ccc4O)[C@H](O)c3ccc(c(Cl)c3)Oc3cc2cc(c3O[C@@H]2O[C@H](CO)[C@@H](O)[C@H](O)[C@H]2O[C@H]2C[C@](C)(N)[C@H](O)[C@H](C)O2)Oc2ccc(cc2Cl)[C@H]1O", "MIC": "0.49 to 0.98 µg/mL"}
{"compound": "CC1(C)S[C@@H]2[C@H](NC(=O)Cc3ccccc3)C(=O)N2[C@H]1C(=O)O", "MIC": "0.49 to 62.5 µg/mL"}
{"compound": "CC(=O)OCC1=C(C(=O)O)N2C(=O)[C@@H](NC(=O)Cc3cccs3)[C@H]2SC1", "MIC": "0.98 to 250 µg/mL"}
{"compound": "O=C(N[C@H](CO)[C@H](O)c1ccc([N+](=O)[O-])cc1)C(Cl)Cl", "MIC": "3.9 to 31.3 µg/mL"}

Output measured MIC for this item: CN(C)C1C(=O)C(C(N)=O)=C(O)C2(O)C(=O)C3=C(O)c4c(O)cccc4C(C)(O)C3CC12 (centres unmarked)
0.49 to 250 µg/mL

---

system: MRSA; assay: antibacterial activity of antibiotics alone and in the presence of apigenin (4 μg/ml), MRSA; type: cell-based, methicillin-resistant Staphylococcus aureus; settings: Staphylococcus aureus, MRSA, 20 h, antibiotic with Apigenin (4 μg/ml); MRSA; read-out: MIC50
property_measured: MIC50 (µg/mL)
Report only the number, with the unit µg/mL understood.

{"smiles_string": "CO[C@@]1(NC(=O)Cc2cccs2)C(=O)N2C(C(=O)O)=C(COC(N)=O)CS[C@@H]21", "property_measured": "MIC50", "numeric_result": 31.3}
{"smiles_string": "COc1cccc(OC)c1C(=O)N[C@@H]1C(=O)N2[C@@H]1SC(C)(C)[C@@H]2C(=O)O", "property_measured": "MIC50", "numeric_result": 15.6}

Specify measured MIC50 for `CC1(C)S[C@@H]2[C@H](NC(=O)[C@H](N)c3ccccc3)C(=O)N2[C@H]1C(=O)O` .
31.3

---

tested on: MRSA; assay: antibacterial activity of antibiotics alone and in the presence of apigenin (4 μg/ml), MRSA; type: cell-based, methicillin-resistant Staphylococcus aureus; settings: Staphylococcus aureus, MRSA, 20 h, antibiotic with Apigenin (4 μg/ml)
property_measured: MIC

Give the reported MIC for this compound. `[H]/N=C(/N)N[C@H]1[C@H](O)[C@@H](O)[C@H](O[C@@H]2O[C@@H](C)[C@](O)(C=O)[C@H]2O[C@@H]2O[C@@H](CO)[C@H](O)[C@@H](O)[C@@H]2NC)[C@@H](N/C(N)=N\[H])[C@@H]1O`
2 to 15.6 µg/mL

---

tested on: MRSA; assay: antibacterial activity of antibiotics alone and in the presence of apigenin (4 μg/ml), MRSA; type: cell-based, methicillin-resistant Staphylococcus aureus; settings: Staphylococcus aureus, MRSA, 20 h, Antibiotics alone
Response field label: string, one of true (MIC50 strictly below 8 µg/mL) or false.

# example entries with known answers
{"compound": "CCn1cc(C(=O)O)c(=O)c2ccc(C)nc21", "system_under_test": "MRSA", "label": "false"}
{"compound": "NC[C@H]1O[C@H](O[C@H]2[C@H](O)[C@@H](O[C@H]3O[C@H](CO)[C@@H](O)[C@H](N)[C@H]3O)[C@H](N)C[C@@H]2N)[C@H](O)[C@@H](O)[C@@H]1O", "system_under_test": "MRSA", "label": "false"}
{"compound": "CC(=O)OCC1=C(C(=O)O)N2C(=O)[C@@H](NC(=O)Cc3cccs3)[C@H]2SC1", "system_under_test": "MRSA", "label": "false"}
{"compound": "CC[C@H]1OC(=O)[C@H](C)[C@@H](O[C@H]2C[C@@](C)(OC)[C@@H](O)[C@H](C)O2)[C@H](C)[C@@H](O[C@@H]2O[C@H](C)C[C@H](N(C)C)[C@H]2O)[C@](C)(O)C[C@@H](C)C(=O)[C@H](C)[C@@H](O)[C@]1(C)O", "system_under_test": "MRSA", "label": "false"}
{"compound": "CN[C@H](CC(C)C)C(=O)N[C@H]1C(=O)N[C@@H](CC(N)=O)C(=O)N[C@H]2C(=O)N[C@H]3C(=O)N[C@H](C(=O)N[C@H](C(=O)O)c4cc(O)cc(O)c4-c4cc3ccc4O)[C@H](O)c3ccc(c(Cl)c3)Oc3cc2cc(c3O[C@@H]2O[C@H](CO)[C@@H](O)[C@H](O)[C@H]2O[C@H]2C[C@](C)(N)[C@H](O)[C@H](C)O2)Oc2ccc(cc2Cl)[C@H]1O", "system_under_test": "MRSA", "label": "true"}

Is MIC50 of `CC1(C)S[C@@H]2[C@H](NC(=O)Cc3ccccc3)C(=O)N2[C@H]1C(=O)O` strictly below 8 µg/mL?
false

is_below(MIC50, 8 µg/mL) for `Cc1onc(-c2ccccc2)c1C(=O)N[C@@H]1C(=O)N2[C@@H]1SC(C)(C)[C@@H]2C(=O)O` ?
false

Is MIC50 strictly under 8 µg/mL for the entry CN(C)C1C(=O)C(C(N)=O)=C(O)C2(O)C(=O)C3=C(O)c4c(O)cccc4C(C)(O)C3CC12 (stereo not shown) ?
true

Data origin: patent US6294526A
